biological target: UniProtKB P56817; experiment: LanthaScreen BACE1 biochemical assay (TR-FRET)
Sequence (P56817 46-501): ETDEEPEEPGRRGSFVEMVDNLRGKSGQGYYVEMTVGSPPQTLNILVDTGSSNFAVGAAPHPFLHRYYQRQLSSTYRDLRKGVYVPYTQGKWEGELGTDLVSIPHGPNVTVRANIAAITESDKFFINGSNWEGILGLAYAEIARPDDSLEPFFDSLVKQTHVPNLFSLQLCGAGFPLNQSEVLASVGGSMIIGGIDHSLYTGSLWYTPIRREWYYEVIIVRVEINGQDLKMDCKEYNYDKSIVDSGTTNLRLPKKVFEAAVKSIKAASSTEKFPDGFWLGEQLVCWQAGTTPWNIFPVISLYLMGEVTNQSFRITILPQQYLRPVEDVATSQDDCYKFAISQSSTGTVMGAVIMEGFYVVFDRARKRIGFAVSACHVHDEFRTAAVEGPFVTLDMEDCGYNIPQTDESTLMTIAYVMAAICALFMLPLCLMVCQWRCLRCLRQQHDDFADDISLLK
Structures can show the parent of a compound that is named as a salt.
parameter: IC50

// NC1=NC2(CCCc3sc(-c4cccc(OC(F)(F)F)c4)cc32)CCS1 (stereo not shown) [Example 24] : IC50 value = 1 to 5 µM

response.value for COCC1Cc2sc(-c3cccc(C#N)c3)cc2C2(CCSC(N)=N2)C1 (racemic) [Example 45, Hydrochloride Salt] (field: IC50) = 5 to 65 µM

Record summary for CC(C)(C)c1cccc(-c2cc3c(s2)CCCC32CCSC(N)=N2)c1 (stereo not shown) [Example 37] : reported IC50 = 5 to 65 µM

Briefly, IC50 measured for N#Cc1cc(F)cc(-c2cc3c(s2)CCCC32CCSC(N)=N2)c1 (stereo not shown) [Example 12] : 5 to 65 µM

FYI, the data here is from patent US9233982B2.
